assay.summary: clinical
condition.label: male, human, in vivo, AUC (AUC0–12) GLSM
property.name: AUC(0-t)
Answers without a unit are incomplete; give the number and then its unit.

# get_value(readout='AUC(0-t)', item= CC(=O)N1CCN(c2ccc(OCC3COC(Cn4ccnc4)(c4ccc(Cl)cc4Cl)O3)cc2)CC1 (stereo not shown) )
37700 ng·h/mL

* * *

assay.summary: clinical
condition.label: male, human, in vivo, 200 mg
property.name: Tmax (h)
Write the number in h without appending the unit.

# get_value(readout='Tmax', item= CC(=O)N1CCN(c2ccc(OCC3COC(Cn4ccnc4)(c4ccc(Cl)cc4Cl)O3)cc2)CC1 (stereo not shown) )
3
